Recorded values, source patent US20240277682A1.

- test_details: PK study of single ascending oral doses in healthy volunteers (Example 7)
- Assay type: in vivo, human
- conditions_used: male, human, plasma; single oral dose 800 mg, fasted, n = 12, Mean(SD)

compound | measure_unit | AUC(0-t)
Cc1ccc(=O)n(-c2ccc(O)cc2)c1 [Hydronidone, N-(4-hydroxyphenyl)-5-Methyl-2-pyridone] | ng·h/mL | 6290

====

- test_details: Parallel group PK study of multiple ascending oral doses (Example 9)
- Assay type: in vivo, human
- conditions_used: both sexes, human, plasma, oral; 200, 400, 600 mg TID, fasted, healthy Chinese subjects
property: Tmax

molecule | property | observed
Cc1ccc(=O)n(-c2ccc(O)cc2)c1 [Hydronidone, N-(4-hydroxyphenyl)-5-Methyl-2-pyridone] | Tmax | ~1 h

====

- test_details: PK study of single ascending oral doses in healthy volunteers (Example 7)
- Type: in vivo, human
- conditions_used: male, human, plasma; single oral dose 400 mg, fasted, healthy Chinese subjects, n = 12, Mean(SD); read-out: AUCINE_pred

molecule | AUC [ng·h/mL]
Cc1ccc(=O)n(-c2ccc(O)cc2)c1 [Hydronidone, N-(4-hydroxyphenyl)-5-Methyl-2-pyridone] | 2800

====

- test_details: PK study of single ascending oral doses in healthy volunteers (Example 7)
- Format: in vivo, human
- conditions_used: male, human, plasma and urine; single oral dose 400 mg, fasted, n = 12, Mean(SD)

molecule | CL renal (mL/min)
Cc1ccc(=O)n(-c2ccc(O)cc2)c1 [Hydronidone, N-(4-hydroxyphenyl)-5-Methyl-2-pyridone] | 11.1

====

- test_details: PK study of single ascending oral doses in healthy volunteers (Example 7)
- Type: in vivo, human
- conditions_used: male, human, plasma; single oral dose 600 mg, fasted, n = 12, Median (Min-Max)

compound | Tmax [min]
Cc1ccc(=O)n(-c2ccc(O)cc2)c1 [Hydronidone, N-(4-hydroxyphenyl)-5-Methyl-2-pyridone] | 40.2

====

- measured_target: human CYP 3A4 (Homo sapiens, UniProt P08684)
- Sequence (P08684 whole entry): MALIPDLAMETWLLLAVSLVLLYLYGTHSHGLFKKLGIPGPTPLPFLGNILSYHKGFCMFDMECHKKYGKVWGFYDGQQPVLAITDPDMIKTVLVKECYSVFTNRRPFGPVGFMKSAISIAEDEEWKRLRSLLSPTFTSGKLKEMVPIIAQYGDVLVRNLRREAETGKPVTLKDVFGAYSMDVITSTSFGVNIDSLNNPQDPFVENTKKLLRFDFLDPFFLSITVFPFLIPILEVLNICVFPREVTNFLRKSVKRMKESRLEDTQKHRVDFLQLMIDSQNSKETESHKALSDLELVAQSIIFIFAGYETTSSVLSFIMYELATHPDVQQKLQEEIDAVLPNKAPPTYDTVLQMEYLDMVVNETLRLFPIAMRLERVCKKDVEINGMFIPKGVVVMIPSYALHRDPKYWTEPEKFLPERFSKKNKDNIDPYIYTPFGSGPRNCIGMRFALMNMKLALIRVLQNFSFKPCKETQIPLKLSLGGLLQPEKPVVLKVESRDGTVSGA
pIC50: −log10 of the molar value.

molecule | pIC50
Cc1ccc(=O)n(-c2ccc(O)cc2)c1 [Hydronidone, N-(4-hydroxyphenyl)-5-Methyl-2-pyridone] | < 4.00

====

- measured_target: UniProt P10635
- Sequence (P10635 whole entry): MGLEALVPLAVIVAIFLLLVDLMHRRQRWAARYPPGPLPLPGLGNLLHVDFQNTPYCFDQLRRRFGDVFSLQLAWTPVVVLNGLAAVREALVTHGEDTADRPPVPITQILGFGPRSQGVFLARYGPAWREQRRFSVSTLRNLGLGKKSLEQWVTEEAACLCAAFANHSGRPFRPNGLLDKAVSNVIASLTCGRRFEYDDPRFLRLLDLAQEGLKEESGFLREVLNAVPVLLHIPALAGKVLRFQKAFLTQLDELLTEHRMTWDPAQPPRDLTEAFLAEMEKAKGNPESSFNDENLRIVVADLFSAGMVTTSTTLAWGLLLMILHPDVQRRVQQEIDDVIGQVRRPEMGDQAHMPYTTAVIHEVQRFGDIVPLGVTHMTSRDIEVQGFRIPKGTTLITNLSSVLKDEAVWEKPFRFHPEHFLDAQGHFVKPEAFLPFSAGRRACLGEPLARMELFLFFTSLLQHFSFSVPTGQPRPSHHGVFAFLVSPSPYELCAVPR
property: IC50

molecule | observed
Cc1ccc(=O)n(-c2ccc(O)cc2)c1 [Hydronidone, N-(4-hydroxyphenyl)-5-Methyl-2-pyridone] | > 100 µM

====

- test_details: PK study of single ascending oral doses in healthy volunteers (Example 7)
- Format: in vivo, human
- conditions_used: male, human, plasma; single oral dose 600 mg, fasted, n = 12, Mean(SD)
property: AUC(0-t) (ng·h/mL)

compound | observed
Cc1ccc(=O)n(-c2ccc(O)cc2)c1 [Hydronidone, N-(4-hydroxyphenyl)-5-Methyl-2-pyridone] | 4920

====

- test_details: Safety, tolerability and PK of single doses, 7-day and 4-week multiple oral doses (Example 10)
- Type: in vivo, human
- conditions_used: human, in vivo, po, 120 mg

molecule | Tmax [min]
Cc1ccc(=O)n(-c2ccc(O)cc2)c1 [Hydronidone, N-(4-hydroxyphenyl)-5-Methyl-2-pyridone] | 36

====

- test_details: PK study of single ascending oral doses in healthy volunteers (Example 7)
- Format: in vivo, human
- conditions_used: male, human, plasma; single oral dose 400 mg, fasted, n = 12, Median (Min-Max)

molecule | Tmax [min]
Cc1ccc(=O)n(-c2ccc(O)cc2)c1 [Hydronidone, N-(4-hydroxyphenyl)-5-Methyl-2-pyridone] | 19.8

====

- test_details: PK study of single ascending oral doses in healthy volunteers (Example 7)
- Assay type: in vivo, human
- conditions_used: male, human, plasma; single oral dose 400 mg, fasted, n = 12, Mean(SD)

molecule | AUC(0-t) / µg·h/mL
Cc1ccc(=O)n(-c2ccc(O)cc2)c1 [Hydronidone, N-(4-hydroxyphenyl)-5-Methyl-2-pyridone] | 2.78

====

- test_details: PK study of single ascending oral doses in healthy volunteers (Example 7)
- Type: in vivo, human
- conditions_used: male, human, plasma; single oral dose 600 mg, fasted, healthy Chinese subjects, n = 12, Mean(SD); read-out: AUCINE_pred
property: AUC (ng·h/mL)

compound | observed
Cc1ccc(=O)n(-c2ccc(O)cc2)c1 [Hydronidone, N-(4-hydroxyphenyl)-5-Methyl-2-pyridone] | 5010

====

- test_details: PK study of single ascending oral doses in healthy volunteers (Example 7)
- Format: in vivo, human
- conditions_used: male, human, plasma; single oral dose 200 mg, fasted, healthy Chinese subjects, n = 12, Mean(SD); read-out: AUCINE_pred

molecule | AUC, ng·h/mL
Cc1ccc(=O)n(-c2ccc(O)cc2)c1 [Hydronidone, N-(4-hydroxyphenyl)-5-Methyl-2-pyridone] | 1380
